Reference source: patent US8742110B2

- assayTarget: SSTR5 (Homo sapiens (Human), UniProt P35346)
- Sequence (P35346 whole entry): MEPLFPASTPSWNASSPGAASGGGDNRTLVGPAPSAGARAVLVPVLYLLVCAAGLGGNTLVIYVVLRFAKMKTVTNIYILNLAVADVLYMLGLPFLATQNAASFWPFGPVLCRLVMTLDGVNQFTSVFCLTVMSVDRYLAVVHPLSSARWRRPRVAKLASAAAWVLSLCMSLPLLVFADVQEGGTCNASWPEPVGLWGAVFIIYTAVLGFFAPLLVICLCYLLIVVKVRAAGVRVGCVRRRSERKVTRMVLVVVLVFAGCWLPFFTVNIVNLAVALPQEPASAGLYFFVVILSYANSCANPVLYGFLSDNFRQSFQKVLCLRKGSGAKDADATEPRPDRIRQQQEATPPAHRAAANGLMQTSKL
- assayNotes: SSTR5 binding assay
- conditionContext: CHO-K1 membranes expressing cloned human SSTR5
Where a name gives a salt, the structure may show the parent alone.
Listed next: entries and their corresponding IC50.
# unit: nM | format: bare number

compound: CC1(C)CCc2cc(CN3CCC4(CC3)CN(c3ccc(C(=O)O)cc3)C(=O)O4)ccc2O1 [Example 5-12, TFA salt]
endpointValue: 29.4

compound: CCOc1ccc(-c2ccc(F)c(F)c2)c(CN2CCCC3(CC2)CN(c2ccc(C(=O)O)cc2)C(=O)O3)c1 (stereo not drawn) [Example 2-13, TFA salt]
endpointValue: 26.1

input: IC50 lookup needed for CCCn1cc(-c2ccc(F)c(F)c2F)c(CN2CCC3(CC2)CN(c2ccc(C(=O)O)cc2)C(=O)O3)n1 [Example 2-6, TFA salt] , thanks.
output: 281

input: Query COc1ccc2c(CN3CCC4(CC3)CN(c3ccc(C(=O)O)cc3)C(=O)O4)cn(-c3ccccc3)c2c1 [Example 6-23, TFA salt] next
output: 9.06

input: Query CCOc1ccc(-c2ccc(F)c(F)c2F)c(CN2CCC3(CC2)CN(c2ccc(C(=O)O)cc2)C(=O)O3)n1 [Example 4-2, TFA salt] next
output: 13.2

input: Query O=C(O)c1ccc(N2CC3(CCN(Cc4cn(-c5ccc6ccccc6c5)nc4-c4ccc(F)c(F)c4F)CC3)OC2=O)cc1 [Example 1-26, TFA salt] next
output: 2.72
